Ref: ChEMBL document CHEMBL1126793

Target or test system: Adenosine receptor A1 (Rattus norvegicus)
Sequence (P25099 whole entry): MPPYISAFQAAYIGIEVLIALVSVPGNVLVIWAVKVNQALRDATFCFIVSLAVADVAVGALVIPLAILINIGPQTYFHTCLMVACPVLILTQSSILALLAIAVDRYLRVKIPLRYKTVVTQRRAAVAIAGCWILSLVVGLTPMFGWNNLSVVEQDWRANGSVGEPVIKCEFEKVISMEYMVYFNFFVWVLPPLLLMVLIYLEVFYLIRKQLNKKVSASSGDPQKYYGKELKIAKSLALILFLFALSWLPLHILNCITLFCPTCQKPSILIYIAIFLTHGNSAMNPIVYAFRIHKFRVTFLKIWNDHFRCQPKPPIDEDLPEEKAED
Assay method text: Binding affinity for adenosine A1 receptor from rat brain membranes using [3H]PIA as radioligand
Readout kind: Ki (µM)
Report only the number, with the unit µM understood.

stdin: Look up Ki for this molecule: "CCC/C=C/c1nc2c(=O)n(C)c(=O)n(C)c2[nH]1"
stdout: 0.38

stdin: Return reported Ki; argument: "Cn1c(=O)c2[nH]c(Br)nc2n(C)c1=O"
stdout: 10.2

stdin: Quick check: Ki of "CCCn1c(=O)c2nc(C)[nH]c2n(CCC)c1=O" ?
stdout: 0.6

stdin: Return reported Ki; argument: "CCC/C=C/c1nc2c(c(=O)n(C)c(=O)n2C)n1C"
stdout: 9.1

stdin: Find the recorded Ki belonging to "Cn1c(-c2ccc(C(F)(F)F)cc2)nc2c1c(=O)[nH]c(=O)n2C" and report it.
stdout: 3.7

stdin: So what does the record say about Ki for "C=CCn1c(-c2ccc(C(F)(F)F)cc2)nc2c1c(=O)n(CCC)c(=O)n2CCC" ?
stdout: 2.9

stdin: # input molecule: "Cc1nc2c(c(=O)n(C)c(=O)n2C)n1C" ; wanted: its Ki
stdout: 4.9

stdin: Any idea what its Ki is? The molecule is "Cn1c(=O)c2nc(C3CCC3)[nH]c2n(C)c1=O"
stdout: 0.19

stdin: Which Ki value is on record for "Cn1c(=O)c2c(nc(Br)n2C)n(C)c1=O" ?
stdout: 49
